Target: T1, FV-short (factor V isoform with B-domain residues 756 to 1458 deleted) (human)
T1 construct: coagulation factor V, splicing isoform FV-short, single chain, lacks the BR and retains AR2; source: BHK cells, purified
Assay: fluorescence polarisation; steady-state anisotropy; FV species (0–100 nM) titrated into 20 nM OG488-TFPIα-BR and 50 μM PCPS, assay buffer (20 mM HEPES, 0.15 M NaCl, 5 mM CaCl2, 0.1% PEG 8000, pH 7.4), 25 °C; fit to independent, noninteracting sites
Conditions: both partners purified
pKd: −log10 of the molar value. Ends that are not written are not given here.
value kind: pKd

{"binder": "{C(Oregon Green488 maleimide)}-KKGFIQRISKGGLIKTKRKRKKQRVKIAYEEIFVKNM (domain or fragment) [OG488-TFPIα-BR, TFPIα-BR modified with Oregon Green488 maleimide]", "measured result": 9.15}
